Cited source: ChEMBL document CHEMBL4513149

# System: Cryptococcus neoformans
# particulars: Concentration 20 uM; ASSAY_TEST Inhibition of Fungal Growth; detection method Resazurin; Absorption (OD600-OD570); plate type 384well; NBS; CORNING #3640
# Description: Antifungal activity against Cryptococcus neoformans H99 ATCC 208821 (CO-ADD:FG_002); MIC in YNB media using NBS plates, by Resazurin OD(600-570)
Potency and affinity values are given separately.
Catalogue of Inhibition readings, one per entry.
Give your result in % as a bare value.

Q: Give Inhibition for `CCOc1ccccc1C(=O)Nc1cccc(-c2nc3ncccn3c2C)c1`
Result: -7.75

Q: Give Inhibition for `COc1ccc(Cn2cnc3c(-c4ccco4)nc(Cl)nc32)cc1`
Result: -6.4

Q: Give Inhibition for `Cc1cc2nc(NC(=O)C(C)(C)C)nc(Cl)c2n1Cc1ccc(Cl)cc1`
Result: -0.22
